Test system: U-937 leukemia cells
assay.comment: Cell cycle and sub-G1 analysis by flow cytometry (propidium iodide)
Assay type: cell-based, human
condition: 10 µM, 24 h, U-937, means ± S.E.
Provide the reported %G2-M of each item.

Exam item: Lab note: record %G2-M of CC(C)N(/C(=N/c1ccc(/C=C/C(=O)c2c(O)cccc2OCc2ccccc2)cc1)Nc1ccccc1)C(C)C [Compound 6h] tested on U-937 leukemia cells.
Marked response: 9.2 ± 0.5 %

Exam item: Lab note: record %G2-M of O=C(/C=C/c1ccc(N=C(Nc2ccccc2)N2CCOCC2)cc1)c1c(O)cccc1OCc1ccccc1 [Compound 6j] tested on U-937 leukemia cells.
Marked response: 11.5 ± 0.1%

Exam item: Lab note: record %G2-M of O=C(/C=C/c1ccc(N=C(Nc2ccccc2)N2CCCCC2)cc1)c1c(O)cccc1OCc1ccccc1 [Compound 6i] tested on U-937 leukemia cells.
Marked response: 8.4 ± 0.1 %

Exam item: Lab note: record %G2-M of Cc1ccc(S(=O)(=O)NC(=Nc2ccc(/C=C/C(=O)c3c(O)cccc3OCc3ccccc3)cc2)N2CCN(C)CC2)cc1 [Compound 6f] tested on U-937 leukemia cells.
Marked response: 10.8 ± 1.6%

Exam item: Lab note: record %G2-M of Cc1ccc(S(=O)(=O)NC(=Nc2ccc(/C=C/C(=O)c3c(O)cccc3OCc3ccccc3)cc2)N(C)c2ccccc2)cc1 [Compound 6c] tested on U-937 leukemia cells.
Marked response: 11.4 ± 0.4%

====

Test system: U-937 leukemia cells
assay.comment: Cell cycle and sub-G1 analysis by flow cytometry (propidium iodide)
Assay type: cell-based, human
condition: 10 µM, 24 h, U-937, means ± S.E.
recorded.endpoint: %G1 (%)
The reply should be a number in %, with the unit left off.

Exam item: Give recorded %G1. Cc1ccc(S(=O)(=O)NC(=Nc2ccc(/C=C/C(=O)c3c(O)cccc3OCc3ccccc3)cc2)N2CCOCC2)cc1
Marked response: 36.5

Exam item: Give recorded %G1. O=C(/C=C/c1ccc(N=C(Nc2ccccc2)N2CCOCC2)cc1)c1c(O)cccc1OCc1ccccc1
Marked response: 51.3

Exam item: Give recorded %G1. CC(C)N(/C(=N/c1ccc(/C=C/C(=O)c2c(O)cccc2OCc2ccccc2)cc1)Nc1ccccc1)C(C)C
Marked response: 53.7

Exam item: Give recorded %G1. Cc1ccc(S(=O)(=O)NC(=Nc2ccc(/C=C/C(=O)c3c(O)cccc3OCc3ccccc3)cc2)N2CCN(C)CC2)cc1
Marked response: 35.2

Exam item: Give recorded %G1. Cc1ccc(S(=O)(=O)NC(=Nc2ccc(/C=C/C(=O)c3c(O)cccc3OCc3ccccc3)cc2)N(C)c2ccccc2)cc1
Marked response: 37.4

Exam item: Give recorded %G1. O=C(/C=C/c1ccc(N=C(Nc2ccccc2)N2CCCCC2)cc1)c1c(O)cccc1OCc1ccccc1
Marked response: 35.9

====

Test system: U-937 leukemia cells
assay.comment: Cell cycle and sub-G1 analysis by flow cytometry (propidium iodide)
Assay type: cell-based, human
condition: 10 µM, 24 h, U-937, means ± S.E.
Doc: threshold 30% (exclusive). Items with %S beneath it return Y; others return N.

Exam item: A record lists O=C(/C=C/c1ccc(N=C(Nc2ccccc2)N2CCOCC2)cc1)c1c(O)cccc1OCc1ccccc1 [Compound 6j] . Is its %S below 30%?
Marked response: N

Exam item: A record lists Cc1ccc(S(=O)(=O)NC(=Nc2ccc(/C=C/C(=O)c3c(O)cccc3OCc3ccccc3)cc2)N2CCN(C)CC2)cc1 [Compound 6f] . Is its %S below 30%?
Marked response: Y

Exam item: A record lists Cc1ccc(S(=O)(=O)NC(=Nc2ccc(/C=C/C(=O)c3c(O)cccc3OCc3ccccc3)cc2)N2CCOCC2)cc1 [Compound 6e] . Is its %S below 30%?
Marked response: Y

Exam item: A record lists Cc1ccc(S(=O)(=O)NC(=Nc2ccc(/C=C/C(=O)c3c(O)cccc3OCc3ccccc3)cc2)N(C)c2ccccc2)cc1 [Compound 6c] . Is its %S below 30%?
Marked response: Y

Exam item: A record lists O=C(/C=C/c1ccc(N=C(Nc2ccccc2)N2CCCCC2)cc1)c1c(O)cccc1OCc1ccccc1 [Compound 6i] . Is its %S below 30%?
Marked response: Y
